Molecular target: Gonadotropin-releasing hormone receptor (Homo sapiens, UniProt P30968)
Sequence (P30968 whole entry): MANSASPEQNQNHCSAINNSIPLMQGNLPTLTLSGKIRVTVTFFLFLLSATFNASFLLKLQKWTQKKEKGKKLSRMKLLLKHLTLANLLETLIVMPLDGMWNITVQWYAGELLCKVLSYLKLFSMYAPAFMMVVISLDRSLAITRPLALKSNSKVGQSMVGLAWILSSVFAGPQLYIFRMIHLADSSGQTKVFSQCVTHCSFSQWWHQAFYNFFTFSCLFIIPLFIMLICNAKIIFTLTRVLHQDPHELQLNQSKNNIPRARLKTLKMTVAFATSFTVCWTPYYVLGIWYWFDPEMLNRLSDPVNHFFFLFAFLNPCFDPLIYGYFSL
Assay: In vitro inhibition of GnRH-stimulated phosphatidyl inositol hydrolysis in CHO cells stably expressing gonadotropin-releasing hormone receptor.
Assay type: functional, cell-based
pIC50: −log10 of the molar value.
RECORDED_ENDPOINT: pIC50

- COMPOUND: "Cc1cc(C)cc(-c2c(O)nc3cc(Cl)c(C(=O)Nc4ccncc4)cc3c2OCCC2CCCCN2)c1 (centres undefined)"
  pIC50: 7.97
- COMPOUND: "Cc1cc(C)cc(-c2c(O)nc3cc(Cl)c(C(=O)Nc4cc(C)ns4)cc3c2OCCC2CCCCN2)c1 (centres undefined)"
  pIC50: 7.67
- COMPOUND: "Cc1cc(C)cc(-c2c(O)nc3cc(Cl)c(C(=O)Nc4cc(C)on4)cc3c2OCCC2CCCCN2)c1 (centres undefined)"
  pIC50: 7.11
- COMPOUND: "Cc1cc(C)cc(-c2c(O)nc3cc(Cl)c(C(=O)Nc4cnsn4)cc3c2OCCC2CCCCN2)c1 (centres undefined)"
  pIC50: 8.19
- COMPOUND: "Cc1cc(C)cc(-c2c(O)nc3cc(Cl)c(C(=O)Nc4ccc(N(C)C)cc4)cc3c2OCCC2CCCCN2)c1 (centres undefined)"
  pIC50: 6.44
- COMPOUND: "Cc1cc(C)cc(-c2c(O)nc3cc(Cl)c(C(=O)Nc4cc(Cl)ncn4)cc3c2OCCC2CCCCN2)c1 (centres undefined)"
  pIC50: 7.84
- COMPOUND: "COc1nccc(NC(=O)c2cc3c(OCCC4CCCCN4)c(-c4cc(C)cc(C)c4)c(O)nc3cc2Cl)n1 (centres undefined)"
  pIC50: 6.88
- COMPOUND: "Cc1cc(C)cc(-c2c(O)nc3cc(Cl)c(C(=O)Nc4cc(C)ncn4)cc3c2OCCC2CCCCN2)c1 (centres undefined)"
  pIC50: 7.36
- COMPOUND: "Cc1cc(C)cc(-c2c(O)nc3cc(Cl)c(C(=O)Nc4nncs4)cc3c2OCCC2CCCCN2)c1 (centres undefined)"
  pIC50: 7.66

P = Cc1cc(C)cc(-c2c(O)nc3cc(Cl)c(C(=O)Nc4ccnc(C)n4)cc3c2OCCC2CCCCN2)c1 (centres undefined)
Q = Cc1cc(C)cc(-c2c(O)nc3cc(Cl)c(C(=O)Nc4ccccn4)cc3c2OCCC2CCCCN2)c1 (centres undefined)
R = Cc1cc(C)cc(-c2c(O)nc3cc(Cl)c(C(=O)Nc4cccnc4)cc3c2OCCC2CCCCN2)c1 (centres undefined)
S = Cc1cc(C)cc(-c2c(O)nc3cc(Cl)c(C(=O)Nc4cnsn4)cc3c2OCC[C@@H]2CCCCN2)c1
stdin: Order these by pIC50, descending, and give the full ranking. Answer format: the labels, ordered as requested.
stdout: S, Q, P, R
(S: 8.23, Q: 7.72, P: 7.48, R: 6.89)
